Reported normalized growth values for a set of compounds
Assay: chemical genetic growth profiling, strain panel (AID 1159580);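 note: tested at 20 µM; growth read once vehicle control cultures reached saturation at 30 °C; 1 = growth at the plate median or of vehicle wells; lower values mean less growth of the strain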
Conditions: S. cerevisiae deletion strains, growth OD, locus YGL086W, strain mad1, hits give low values
Among all 5,500 compounds or so, about 2,000 (36%) were called active. Another 18% or so got no clear call; they are omitted. This is one part of the list.

COMPOUND	VALUE OBSERVED
NC[C@H]1O[C@H](O[C@H]2C(O[C@@H]3O[C@H](CO)[C@@H](O)[C@H]3O)[C@@H](O)[C@H](N)C[C@@H]2N)[C@H](N)[C@@H](O)[C@@H]1O (stereo partly drawn)	0.994 (inactive)
COC(=O)C[C@H]1C(C)(C)[C@@H](O)[C@@H]2CC3=C4C=C(OC)O[C@@H](c5ccoc5)[C@]4(C)CCC3[C@@]1(C)C2=O (stereo partly drawn)	0.991 (inactive)

Alright, here's another compound for you.
Q: Consider the compound CN[C@@H]1[C@@H](O[C@H]2O[C@H](CO)[C@@H](N)[C@H](O)[C@H]2O)O[C@H]2C[C@@H](N)[C@H](O[C@H]3[C@H](O)[C@@H](O)[C@H](N)C[C@@H]3N)O[C@@H]2[C@@H]1O and give its measured normalized growth.
A: 1.01 (inactive)
